- system: Rho-associated protein kinase 2 (Homo sapiens, UniProt O75116); also: in the data inactive means no Kd found up to 30 µM
- Sequence (O75116 whole entry): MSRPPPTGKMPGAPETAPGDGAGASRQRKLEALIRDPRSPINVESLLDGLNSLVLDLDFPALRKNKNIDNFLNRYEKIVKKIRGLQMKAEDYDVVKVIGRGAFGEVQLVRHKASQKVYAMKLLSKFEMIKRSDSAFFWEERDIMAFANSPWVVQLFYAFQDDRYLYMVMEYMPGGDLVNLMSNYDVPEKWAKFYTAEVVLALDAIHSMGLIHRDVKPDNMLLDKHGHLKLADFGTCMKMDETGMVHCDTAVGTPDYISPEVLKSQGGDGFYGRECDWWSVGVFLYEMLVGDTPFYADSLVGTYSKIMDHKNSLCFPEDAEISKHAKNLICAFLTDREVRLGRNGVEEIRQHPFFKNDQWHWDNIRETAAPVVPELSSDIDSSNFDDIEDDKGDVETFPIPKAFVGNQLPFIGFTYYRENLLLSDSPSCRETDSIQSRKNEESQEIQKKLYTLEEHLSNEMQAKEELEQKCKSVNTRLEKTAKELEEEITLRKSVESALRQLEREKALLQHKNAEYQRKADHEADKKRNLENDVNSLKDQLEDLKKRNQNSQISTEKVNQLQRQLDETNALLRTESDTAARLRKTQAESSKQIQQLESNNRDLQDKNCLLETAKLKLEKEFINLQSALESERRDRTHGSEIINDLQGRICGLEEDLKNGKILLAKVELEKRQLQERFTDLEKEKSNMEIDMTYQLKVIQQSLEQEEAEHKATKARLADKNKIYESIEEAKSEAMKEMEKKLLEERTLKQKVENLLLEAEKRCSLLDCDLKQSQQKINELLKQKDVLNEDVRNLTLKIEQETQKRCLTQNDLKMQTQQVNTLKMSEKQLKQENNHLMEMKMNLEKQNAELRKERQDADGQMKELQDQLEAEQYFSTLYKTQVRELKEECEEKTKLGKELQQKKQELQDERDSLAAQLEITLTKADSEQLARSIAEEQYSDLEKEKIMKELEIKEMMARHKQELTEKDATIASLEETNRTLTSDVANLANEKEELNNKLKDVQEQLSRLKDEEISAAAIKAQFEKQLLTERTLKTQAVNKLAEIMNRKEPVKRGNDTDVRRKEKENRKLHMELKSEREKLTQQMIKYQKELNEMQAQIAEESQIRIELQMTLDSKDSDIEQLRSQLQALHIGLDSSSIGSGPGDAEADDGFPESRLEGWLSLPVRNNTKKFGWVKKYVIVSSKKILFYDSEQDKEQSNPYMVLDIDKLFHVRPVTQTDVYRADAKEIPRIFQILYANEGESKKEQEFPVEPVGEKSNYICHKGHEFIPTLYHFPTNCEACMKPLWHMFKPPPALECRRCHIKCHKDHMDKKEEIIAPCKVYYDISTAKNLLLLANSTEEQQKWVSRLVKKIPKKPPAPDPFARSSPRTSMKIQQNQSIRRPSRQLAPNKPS
Activity calls are given as the source filed them.
Classes used: active, inactive

INSERT INTO measurements (compound, label_value) VALUES
  ('NC1(c2ccc(-c3nc4ccn5c(=O)[nH]nc5c4cc3-c3ccccc3)cc2)CCC1 [MK-2206]', 'inactive'),
  ('Cc1cc(C(=O)NOCCO)c(Nc2ccc(I)cc2F)n(C)c1=O [AZD-8330]', 'inactive'),
  ('FC(F)(F)c1ccc(/C=C/c2nc(COc3ccc(CCCCn4ccnn4)cc3)co2)cc1 [MUBRITINIB]', 'inactive'),
  ('O=C(Nc1cc(C(F)(F)F)cc(C(F)(F)F)c1)c1cc(Cl)ccc1O [IMD-0354]', 'inactive'),
  ('O=c1[nH]ccc2cc(OC3CCNCC3)ccc12 [SAR-407899 FREE BASE]', 'active');
